All figures here come from patent US20260306680A1.

test_summary: Ex vivo biodistribution in mice bearing LNCaP tumor xenografts
Set-up: species or system mouse (male NOD-scid IL2Rg^null (NSG))
test_context: mouse, pancreas, iv, 1 h post-injection, mean ± SD; read-out: Pancreas uptake

{"columns": ["compound", "tissue uptake at 1 h"],
 "data": [
  ["O=C(O)CC[C@H](NC(=O)N[C@@H](CCCCNC(=O)[C@H](Cc1c2ccccc2cc2ccccc12)NC(=O)[C@H]1CC[C@H](CNC(=O)[C@H](CCNC(=O)c2ccc(F)nc2)NC(=O)CCC(=O)N(CC(=O)O)CC(=O)O)CC1)C(=O)O)C(=O)O [^18F-KL01120]", "2.22 %ID/g"],
  ["O=C(O)CCC[C@H](NC(=O)N[C@@H](CCCCNC(=O)[C@H](Cc1c2ccccc2cc2ccccc12)NC(=O)[C@H]1CC[C@H](CNC(=O)[C@H](CCCCNC(=O)c2ccc(F)nc2)NC(=O)CN(CC(=O)O)CC(=O)O)CC1)C(=O)O)C(=O)O [^18F-KL01040]", "0.38 %ID/g"],
  ["O=C(O)CCC[C@H](NC(=O)N[C@@H](CCCCNC(=O)[C@H](Cc1c2ccccc2cc2ccccc12)NC(=O)[C@H]1CC[C@H](CNC(=O)CNC(=O)[C@H](CCCCNC(=O)c2ccc(F)nc2)NC(=O)CN(CC(=O)O)CC(=O)O)CC1)C(=O)O)C(=O)O [^18F-KL01130]", "0.21 %ID/g"]
]}
